# assay_system: TGF-beta1 (hTGF-beta1) (Homo sapiens, UniProt P01137 P01137:279-390)
# Sequence (P01137 279-390, one chain of several): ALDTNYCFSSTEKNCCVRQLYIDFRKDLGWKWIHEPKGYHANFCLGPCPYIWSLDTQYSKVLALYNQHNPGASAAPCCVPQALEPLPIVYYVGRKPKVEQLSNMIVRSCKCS
# assay_procedure: filter; biphasic; Kd1 12.3±2.4 nM
# experimental_conditions: tags: R&D Systems; biotinylated form (NFTG0) used for BIAcore; chain copies: 2
endpoint_name: Kd (nM)
Field: numeric (nM). Do not append units.

Inquiry: So what does the record say about Kd for 40-28 (ssRNA, 2'-F C and U) RNA: GGGAGGACGAUGCGGUUAGGGGCGUCAACACCGCUAUUACAACUUUCGCCUCACCAGACGACUCGCCCGA ?
Reply text: 0.0816
